Biological target: T1, recombinant human CD40 (ECD)-his (human, UniProt P25942 21-193)
T1 construct: Bought protein; also called hCD40(ECD)-his; TNFRSF5
T1 sequence (P25942 21-193): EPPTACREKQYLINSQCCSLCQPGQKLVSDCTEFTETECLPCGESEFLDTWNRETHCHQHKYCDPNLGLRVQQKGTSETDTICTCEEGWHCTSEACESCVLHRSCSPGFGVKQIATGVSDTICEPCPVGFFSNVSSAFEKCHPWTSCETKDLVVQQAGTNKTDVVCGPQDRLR
Experiment: SPR (Biacore 8K), hCD40(ECD)-his coupled to chip, antibody injected
Method: SPR assays were used to determine the binding affinity of the chimetic or humanized anti-CD40 antibodies to human CD40 with the BIAcore™ 8K instrument (GE Life Sciences). […] The binding capacity was calculated with the RUs of blank controls subtracted. The association rate (k_a) and dissociation rate (k_d) were calculated using the one-to-one Langmuir binding model (BIA Evaluation Software, GE Life Sciences). The equilibrium dissociation constant K_D was calculated as the k_d/k_a ratio.
Kd by entry:
Numbers only; they are read as nM.

1) 13A2-VH2VL2 (antibody, human IgG2, kappa, V domains shown, Humanized, human IgG2/kappa) VH: QVQLQESGPGLVKPSDTLSLTCAVSGYSITTNYYWNWIRQPPGKGLEWMGYINYDGSNNYNPSLKNRITISVDTSKNQFSLKLSSVTAVDTAVYYCARLDYWGQGTLVTVSS VL: DVVLTQSPLSLPVTLGQPASISCRSSQSLENSNGNTFLNWFQQRPGQSPRLLIYKVSNRFSGVPDRFSGSGSGTDFTLKISRVEAEDVGVYYCLQVTHVPFTFGQGTKLEIKR ... 2.08

Query: Give me measured Kd, please, for this binder: 13A2-VH3VL3 (antibody, human IgG2, kappa, V domains shown, Humanized, human IgG2/kappa) VH: QVQLQESGPGLVKPSDTLSLTCAVSGYSITTNYYWNWIRQPPGNKLEWMGYINYDGSNNYNPSLKNRITISVDTSKNQFSLKLSSVTAVDTAVYYCARLDYWGQGTLVTVSS VL: DVVLTQSPLSLPVTLGQPASISCRSSQSLENSNGNTFLNWFQQRPGQSPRLLIYKVSNRFSGVPDRFSGSGSGTDFTLKISRVEAEDVGVYFCLQVTHVPFTFGSGTKLEIKR
Response: 7.68

Query: Answer with the recorded Kd of 13A2-VH0VL0 (antibody, human IgG2, kappa, V domains shown, Humanized, human IgG2/kappa) VH: QVQLQESGPGLVKPSDTLSLTCAVSGYSITTNYYWNWIRQPPGKGLEWIGYINYDGSNNYNPSLKNRVTMSVDTSKNQFSLKLSSVTAVDTAVYYCARLDYWGQGTLVTVSS VL: DVVMTQSPLSLPVTLGQPASISCRSSQSLENSNGNTFLNWFQQRPGQSPRRLIYKVSNRFSGVPDRFSGSGSGTDFTLKISRVEAEDVGVYYCLQVTHVPFTFGQGTKLEIKR only.
Response: 28.8
